System: NCI-H1623
assay-method-text: relative viability (nuclei count vs DMSO), 5 days (fraction); higher = more cells survive
condition-details: first compound 0.006325 µM
measurement-kind: relative viability
I only need the number, thanks.

Example entries begin here.
[
  {
    "compound": "CC(=O)O[C@@]12CO[C@@H]1C[C@H](O)[C@@]1(C)C(=O)[C@H](O)C3=C(C)[C@@H](OC(=O)[C@H](O)[C@@H](NC(=O)OC(C)(C)C)c4ccccc4)C[C@@](O)([C@@H](OC(=O)c4ccccc4)[C@H]21)C3(C)C [Docetaxel] + N=C(N)NC(=N)NCCc1ccccc1 [Phenformin] (partner 250 µM)",
    "relative viability": 0.313
  },
  {
    "compound": "CC(=O)O[C@@]12CO[C@@H]1C[C@H](O)[C@@]1(C)C(=O)[C@H](O)C3=C(C)[C@@H](OC(=O)[C@H](O)[C@@H](NC(=O)OC(C)(C)C)c4ccccc4)C[C@@](O)([C@@H](OC(=O)c4ccccc4)[C@H]21)C3(C)C [Docetaxel] + COc1cccc2cc(-c3nc([C@H]4CC[C@H](C(=O)O)CC4)n4ncnc(N)c34)[nH]c12 [OSI-027] (partner 0.5 µM)",
    "relative viability": 0.335
  },
  {
    "compound": "CC(=O)O[C@@]12CO[C@@H]1C[C@H](O)[C@@]1(C)C(=O)[C@H](O)C3=C(C)[C@@H](OC(=O)[C@H](O)[C@@H](NC(=O)OC(C)(C)C)c4ccccc4)C[C@@](O)([C@@H](OC(=O)c4ccccc4)[C@H]21)C3(C)C [Docetaxel] + COc1cc2c(Oc3ccc(NC(=O)C4(C(=O)Nc5ccc(F)cc5)CC4)cc3F)ccnc2cc1OCCCN1CCOCC1 [Foretinib] (partner 0.25 µM)",
    "relative viability": 0.427
  }
]

Q: Please report the recorded relative viability for CC(=O)O[C@@]12CO[C@@H]1C[C@H](O)[C@@]1(C)C(=O)[C@H](O)C3=C(C)[C@@H](OC(=O)[C@H](O)[C@@H](NC(=O)OC(C)(C)C)c4ccccc4)C[C@@](O)([C@@H](OC(=O)c4ccccc4)[C@H]21)C3(C)C [Docetaxel] + Cc1nc(Nc2ncc(C(=O)Nc3c(C)cccc3Cl)s2)cc(N2CCN(CCO)CC2)n1 [Dasatinib] (partner 0.075 µM) .
Result: 0.313
